Origin of values: ChEMBL document CHEMBL4270534

- Tested on: Candida tropicalis
- experiment summary: Fungicidal activity against Candida tropicalis incubated for 24 hrs followed by plating onto tryptic soy agar medium and measured after 24 hrs by broth microdilution method
- Format: functional
Below: a set of entries, each annotated with reported MFC.
Give the quantity in µg/mL, number only.

{"columns": ["compound", "metric name", "output unit", "observed value"],
 "data": [
  ["OC(Cn1cncn1)(Cn1c2ccccc2c2cc(Br)ccc21)c1ccc(F)cc1F (stereo unspecified)", "MFC", "µg/mL", 32]
]}

Entry OC(Cn1cncn1)(Cn1c2ccc(Br)cc2c2cc(Br)ccc21)c1ccc(F)cc1F (stereo unspecified) , MFC reported as 8

The compound listed as OC(Cn1cncn1)(Cn1c2ccccc2c2ccc(Br)cc21)c1ccc(F)cc1F (stereo unspecified) has a reported MFC of 4

The compound listed as OC(Cn1cncn1)(Cn1c2ccc(Br)cc2c2cc(Br)ccc21)c1ccc(F)cc1 (stereo unspecified) has a reported MFC of 32

Data point: OC(Cn1cncn1)(Cn1c2ccccc2c2ccccc21)c1ccc(F)cc1F (stereo unspecified) ; MFC = 16

MFC measured on OC(Cn1cncn1)(Cn1c2ccc(Br)cc2c2cc(Br)ccc21)c1ccc(Cl)c(Cl)c1 (stereo unspecified) = 8
